System: P388 Murine lymphoma
Assay: Cytotoxicity IC50 (after Berjeron et al)
Settings: read-out: Cytotoxicity of aplidine derivatives IC50 (Molar) P388; P388
Observable: IC50

substance="[ZNVa-Pro]^9-aplidine [9NVSAPL2]" experimental_system="P388 Murine lymphoma" experimental_result="7.9 nM"

---

Tested on: A549 human lung carcinoma
Assay: Cytotoxicity IC50 (after Berjeron et al)
Conditions: read-out: Cytotoxicity of aplidine derivatives IC50 (Molar) A549; A549
pIC50: −log10 of the molar value.
Observable: pIC50

substance="[Hiv]^3-[Z-Ala]^9-aplidine [9ZASHPL2]" experimental_result=8.38
substance="[ZNVa-Pro]^9-aplidine [9NVSAPL2]" experimental_result=8.41
substance="[Hiv]^3-[Z-NVa-Pro]^9-aplidine [9NVSHPL2]" experimental_result=8.09
substance="[Hiv]^3-[NVa-Pro]^9-aplidine [9NVSHPL1]" experimental_result=9.03
substance="[NVa-Pro]^9-aplidine [9NVSAPL1]" experimental_result=9.36
substance="[Hiv]^3-[D-Lac(OTBDMS)]^9-aplidine [9LSHPL2(D)]" experimental_result=7.07

---

System: HT-29 human colon carcinoma
Experiment: Cytotoxicity IC50 (after Berjeron et al)
Details: read-out: Cytotoxicity of aplidine derivatives IC50 (Molar) HT29; HT29
Observable: IC50 (nM)

substance="[Hiv]^3-[Z-NVa-Pro]^9-aplidine [9NVSHPL2]" experimental_system="HT-29 human colon carcinoma" observable=IC50 unit_tag=nM experimental_result=8.22
substance="[Hiv]^3-[D-Lac(OTBDMS)]^9-aplidine [9LSHPL2(D)]" experimental_system="HT-29 human colon carcinoma" observable=IC50 unit_tag=nM experimental_result=85.5
substance="[Hiv]^3-[NVa-Pro]^9-aplidine [9NVSHPL1]" experimental_system="HT-29 human colon carcinoma" observable=IC50 unit_tag=nM experimental_result=0.923
substance="[NVa-Pro]^9-aplidine [9NVSAPL1]" experimental_system="HT-29 human colon carcinoma" observable=IC50 unit_tag=nM experimental_result=0.439
substance="[Hiv]^3-[Z-Ala]^9-aplidine [9ZASHPL2]" experimental_system="HT-29 human colon carcinoma" observable=IC50 unit_tag=nM experimental_result=4.21
substance="[ZNVa-Pro]^9-aplidine [9NVSAPL2]" experimental_system="HT-29 human colon carcinoma" observable=IC50 unit_tag=nM experimental_result=3.93

---

Tested on: A549 human lung carcinoma
Experiment: Cytotoxicity IC50 (after Berjeron et al)
Settings: Homo sapiens, A549, read-out: Cytotoxicity of [aa3]-aplidine Congeners IC50 (Molar) A549
*1 amine or outer side, *2 acyl side, *3 side chain or, on linkers, in order; H or OH if unused. Where a SMILES comes first, the peptide text is derived from it. Bridges are numbered along the chain shown (N, C = ends). [ ]: non-standard residue; d: D form. The star is where a group is joined. X2 = CC[C@H](C)[C@@H](N[*:1])[C@@H](O)CC(=O)[*:2]; NMeY = CN[C@@H](Cc1ccc(O)cc1)C(=O)O; dNMeL = CN[C@H](CC(C)C)C(=O)O; Hiv = CC(C)[C@H](O)C(=O)O; Pyruvoyl = CC(=O)C(=O)*
Observable: IC50 (nM)

compound="CC[C@H](C)[C@H]1NC(=O)[C@@H](NC(=O)[C@@H](CC(C)C)N(C)C(=O)[C@@H]2CCCN2C(=O)C(C)=O)[C@@H](C)OC(=O)[C@H](Cc2ccc(OC)cc2)N(C)C(=O)[C@@H]2CCCN2C(=O)[C@H](CC(C)C)NC(=O)[C@H](C(C)C)OC(=O)C[C@@H]1O [SHPL1, [Hiv]^3-Aplidine] (Pyruvoyl-P[dNMeL]T[X2][Hiv]LP[NMeY](Me); ester 3-C)" experimental_result=0.474

# credit: patent US20080009435A1
